System: NCI/ADR-RES ovarian
Assay: NCI tumour cell line growth inhibition, 48 h
PROPERTY_LABEL: TGI

> print(dat)
                                   compound          system.name  assay.result
1  CCCCCCCCCCCCCC[n+]1ccc2c(C)c3c(c(C)c2c1)c1cc(O)ccc1n3CC  NCI/ADR-RES ovarian       32.3 µM
2                  CSc1ccc(NC(=S)NN(C)C)cc1  NCI/ADR-RES ovarian       > 10 µM
3  COC(=O)C1CCC(=O)N1C(c1ccc(OC)cc1)c1ccc(OC)cc1 (stereo not drawn)  NCI/ADR-RES ovarian      > 100 µM

----------
Tested on: MOLT-4 leukemia
Test: NCI tumour cell line growth inhibition, 48 h

COMPOUND	TGI
CCOC(=O)NC(NC1=NCCS1)(C(=O)OCC)C(F)(F)F (centres undefined)	> 100 µM
c1ccc2c(c1)ncn2C1CCCCO1 (centres undefined)	> 100 µM
O=c1[nH]c(=O)n(C2CC(O)C(CO)O2)cc1C1=NC1 (centres undefined)	> 100 µM
C#CC1(O)C(COP(=O)(O)OCC2OC(n3ccc(NCCCCCCCCCCCCCCCCCC)nc3=O)C(O)C2O)OC(n2ccc(N)nc2=O)C1O (centres undefined)	40 µM
CC1(C)[C@@H](O[C@@H]2OC[C@@H](O[C@@H]3O[C@H](CO)[C@@H](O)[C@H](O)[C@H]3O[C@@H]3OC[C@@H](O)[C@H](O)[C@H]3O)[C@H](O)[C@H]2O[C@@H]2O[C@H](CO)[C@@H](O)[C@H](O)[C@H]2O)CC[C@]2(C)[C@H]3CC[C@]45OC[C@@]6(CC[C@](C)(C=O)C[C@H]64)[C@H](O)C[C@@]5(C)[C@]3(C)CC[C@@H]12	2.31 µM
COc1ccc(/C=C2\N=C(c3ccccc3)N(N=C3NC(=O)CC(=O)N3)C2=O)cc1	> 100 µM
O=CC(O)C(O)C(O)C(O)COP(=O)(O)Cc1ccccc1 (centres undefined)	> 10 µM
Cc1ccc(OC2CC(n3cnc4ncnc(Cl)c43)OC2Oc2ccc(C)cc2)cc1 (centres undefined)	> 100 µM
C[C@@H](CO)[C@@H]1CCC=C2CC[C@]3(C)[C@H](CC[C@@H]4[C@@]5(C)CCCNC(C)(C)[C@@H]5CC[C@]43C)[C@H]21	7.27 µM

----------
TGI listing for selected molecules.
Tested on: U251 CNS
Experiment: NCI tumour cell line growth inhibition, 48 h
PROPERTY_LABEL: TGI

> print(dat)
                                   molecule  system.name  property.label  assay.result
1         O=S(=O)(O)ON=C1c2ccccc2-c2ccccc21     U251 CNS             TGI      > 100 µM
2  COC1OC(COCc2ccc(Cl)cc2)C(OCc2ccc(Cl)cc2)C1N=[N+]=[N-] (stereo not drawn)     U251 CNS             TGI      > 100 µM
3                          COC(=O)CCCC(=O)O     U251 CNS             TGI      > 100 µM

----------
# TGI listing for each entry below
Test system: UACC-257 melanoma
Experiment: NCI tumour cell line growth inhibition, 48 h
PROPERTY_LABEL: TGI

> print(dat)
                                    compound  property.label  assay.result
 1  Fc1ccc2nc3n(c2c1)C(c1c(Cl)cccc1Cl)SC3 (stereo not drawn)             TGI      > 100 µM
 2  CCc1cccc(C(C)C)c1N1C(=O)C(=O)C(c2nc3ccccc3s2)C(=O)C1=O             TGI       > 50 µM
 3                  O=C(O)c1cnc2[nH]ccn2c1=O             TGI      > 100 µM
 4    COc1ccc(/C(C#N)=C/c2ccc(OC)c(OC)c2)cc1             TGI      > 100 µM
 5  CCn1cc(C(=O)O)c(=O)c2cc3c(cc21)S(=O)(=O)CC3             TGI      > 100 µM
 6  NC1CC2NC3CCCCC3NC2CC1N (stereo not drawn)             TGI      > 100 µM
 7  O=[N+]([O-])c1cccc(-c2oc(C=Nc3ccccc3)c([N+](=O)[O-])c2-c2cccc([N+](=O)[O-])c2)c1             TGI      > 100 µM
 8  COC1OC(COCc2ccc(Cl)cc2)C(OCc2ccc(Cl)cc2)C1N=[N+]=[N-] (stereo not drawn)             TGI      > 100 µM
 9  O=C(CCC(=O)C(C(=O)c1ccccc1)c1ccccc1)Nc1cccc(C(F)(F)F)c1 (stereo not drawn)             TGI      > 100 µM
10  Nc1nc(-c2ccccc2)nc2c1[n+]([O-])c1ccccc1[n+]2[O-]             TGI      > 100 µM
11        N#C/C(=C\c1cc(Cl)cc(Cl)c1)c1ccccn1             TGI      > 100 µM
12  Cc1cc(Cc2c(F)c(F)c(C(c3cc(C)no3)c3c(F)c(F)c(F)c(F)c3F)c(F)c2F)on1 (stereo not drawn)             TGI      > 100 µM
13             Cc1ccc(-n2[nH]nc(C#N)c2=O)cc1             TGI      > 100 µM
14  Brc1ccc2c([C@H]3CN[C@@H](c4c[nH]c5cc(Br)ccc45)CN3)c[nH]c2c1             TGI       28.1 µM
15  CC(=O)N(O)[C@@H]1CC[C@H](n2cnc3c(N)ncnc32)C1             TGI      > 100 µM
16  COc1ccc(OC)c(CC2CCc3nc(N)nc(N)c3C2)c1 (stereo not drawn)             TGI       34.4 µM
17  O=C1c2ccccc2C(=O)c2c1ccc(C1C(=O)c3ccccc3C1=O)c2-c1c(C2C(=O)c3ccccc3C2=O)ccc2c1C(=O)c1ccccc1C2=O             TGI      > 100 µM
18           C1CCN(c2nc(=[N+]3CCCCC3)ss2)CC1             TGI      > 100 µM
19  O=C(Nc1nc2ncn(CCNCc3ccccc3)c2c(=O)[nH]1)c1ccccc1             TGI      > 100 µM
20  COc1ccc(/C=C2\CCC(CNc3ccc(OC)cc3)C2=O)cc1 (stereo not drawn)             TGI       34.5 µM
21                     COC(=O)c1c(N)n[nH]c1N             TGI      > 100 µM
22  COC(=O)C1=C(O)C(C(=O)OC)[C@]2(O)[C@H](C(=O)OC)[C@H]1C[C@@H](c1c(Cl)cccc1Cl)[C@H]2C(=O)OC (stereo partly drawn)             TGI       6.08 µM
23           NCCCNCCCCN(CCCN)/[N+]([O-])=N\O             TGI      > 100 µM
24       Cn1c(-c2ccccc2)cc2c3ccsc3c3ccsc3c21             TGI      > 100 µM
25  COc1ccc(/C=c2\sc3n(c2=O)C(N)=C(C#N)C(c2ccc(OC)cc2)C=3c2nc3ccccc3[nH]2)cc1 (stereo not drawn)             TGI       78.8 µM
26  O=C1[C@@H]2[C@@H](c3ccccc3)[C@]2(Cl)C(=O)[C@H]2[C@H](c3ccccc3)[C@@]12Cl             TGI      > 100 µM
27  C#CC1(O)C(COP(=O)(O)OCC2OC(n3ccc(NCCCCCCCCCCCCCCCCCC)nc3=O)C(O)C2O)OC(n2ccc(N)nc2=O)C1O (stereo not drawn)             TGI       60.2 µM
28  CC(C)C(C)C(C)(C)P(C)(C)=O (stereo not drawn)             TGI      > 100 µM
29  COc1cc(Nc2ccnc(NCCCNc3ccnc4cc(Cl)ccc34)n2)cc(OC)c1             TGI       3.44 µM
30  Cc1cc(N(CCNc2ccnc3cc(Cl)ccc23)Cc2ccco2)nc(Cl)n1             TGI       3.68 µM
31  COC(=O)/C=C/c1ccc2c(c1)CC1(C2)Cc2cc3c(cc2C1=O)CCC3 (stereo not drawn)             TGI      > 100 µM
32  C=C1CC/C=C(\C)C(=O)C[C@@H]2[C@@H]1CC2(C)C             TGI         16 µM
33      O=C(Cn1ccnc1[N+](=O)[O-])c1ccc(F)cc1             TGI      > 100 µM
